Tested on: TDF
test_summary: cell number relative to DMSO (% of DMSO); higher = more cells (less growth inhibition / toxicity)
test_parameters: concentration: 10 µM; 24 h
Tag: criterion met if measured cell number is not below 100, criterion not met if it is.

cell number >= 100 for CC(=O)OCC=C(C)C=CC=C(C)C=CC1=C(C)CCCC1(C)C [Vitamin A acetate] ?
criterion met

Try CCOC(=O)C=Cc1ccc(O)c(OC)c1 next.
criterion not met

Same thing, different compound: CCCCCC=CCC=CCC=CCCCCC(=O)O
criterion not met

Also check O=c1c(O)c(-c2ccccc2O)oc2cc(O)cc(O)c12
criterion met

Same lookup for O=C1c2ccccc2-c2nc3nnnn3nc21 , please.
criterion not met

Quick one: CCCn1c(=O)c2[nH]c(-c3ccc(OCC(=O)Nc4ccc(C#N)cc4)cc3)nc2n(CCC)c1=O
criterion met

Note, next up: CN1CCN(C2Cc3ccccc3Sc3ccc(Cl)cc32)CC1.O=C(O)C=CC(=O)O (stereo not drawn)
criterion met

And then Cl.Cl.Fc1ccc(C(c2ccc(F)cc2)N2CCN(CC=Cc3ccccc3)CC2)cc1 [Flunarizine.2HCl] , what is it?
criterion met

###

System: HCC1569
test_summary: cell number relative to DMSO (% of DMSO); higher = more cells (less growth inhibition / toxicity)
test_parameters: concentration: 10 µM; 24 h
Would you mind telling me the reported cell number of each entry?
Answers are plain numbers.

Below, 5 molecules whose answers are already recorded.
CC(C)c1ccc2c(c1)c(SC(C)(C)C)c(CC(C)(C)C(=O)[O-])n2Cc1ccc(Cl)cc1.[Na+] ... 102
COC1C(N(C)C(=O)c2ccccc2)CC2OC1(C)n1c3ccccc3c3c4c(c5c6ccccc6n2c5c31)C(=O)NC4 (stereo not drawn) ... 66
COCCOC(=O)C1=C(C)NC(C)=C(C(=O)OC(C)C)C1c1cccc([N+](=O)[O-])c1 (stereo not drawn) ... 100
O=S(=O)(c1cccc2cnccc12)N1CCCNCC1 ... 107
CN1CCN(CCCN2c3ccccc3Sc3ccc(Cl)cc32)CC1.O=C(O)C=CC(=O)O.O=C(O)C=CC(=O)O [Prochlorperazine dimaleate] ... 83.7

# return cell number for each item in the list
1. CN(C)C(=N)N=C(N)N
2. CCCN(CCC)CC1CCCCN1CCNC(=O)N1c2ccccc2C(=O)Nc2cccnc21 (stereo not drawn)
3. CCCOc1ccccc1-c1nc2[nH][nH]nc-2c(=O)n1

[100, 98.5, 100]

###

System: TDF
test_summary: H1.0 immunofluorescence intensity relative to DMSO (% of DMSO); higher = stronger H1.0 induction, active = 120 or more
test_parameters: concentration: 10 µM; 24 h
Outcomes you can answer with include only these: active, inactive

How was Nc1nc(Nc2ccc(S(N)(=O)=O)cc2)nn1C(=S)Nc1c(F)cccc1F classified in this test?
active

And for CCCCCC(O)C=CC1=C(CCCCCCC(=O)O)C(=O)CC1 (stereo not drawn) ?
inactive

Queued: CC(C)(O)CCC(O)C(C)(O)C1CCC2(O)C3=CC(=O)C4CC(O)C(O)CC4(C)C3CCC12C (stereo not drawn)
inactive

###

Task for the reader: assign each of the following compounds its reported H1.0 immunofluorescence intensity.
Tested on: HCC1569
test_summary: H1.0 immunofluorescence intensity relative to DMSO (% of DMSO); higher = stronger H1.0 induction, active = 140 or more
test_parameters: concentration: 10 µM; 24 h
One number for each entry.

For every record below, what is its H1.0 immunofluorescence intensity?
1. CC(C)=CCCC(C)(O)C1CCC2(C)C1CCC1C3(C)CCC(=O)C(C)(C)C3CCC12C (centres undefined)
2. COc1ccc(OC)c2c(=S)c3ccccc3[nH]c12
3. CN1CCN(c2c(F)cc3c(=O)c(C(=O)O)cn(CCF)c3c2F)CC1
4. COc1cc(O)c2c(c1)oc(=O)c1c3cc(O)c(O)cc3oc21

1. 82.7
2. 111
3. 112
4. 91.6

I have 4 compounds here; please give me H1.0 immunofluorescence intensity for each one.
1. Cc1ccc(C(=O)c2ccc(CC(=O)O)n2C)cc1
2. COc1cc2oc(-c3ccc(O)c(O)c3)cc(=O)c2c(O)c1OC
3. CC1(C)SC2C(NC(=O)C(N)c3ccc(O)cc3)C(=O)N2C1C(=O)O (centres undefined)
4. C[C@H](O)[C@H](O)[C@H]1CNc2[nH]c(N)nc(=O)c2N1.Cl.Cl

1: 104; 2: 118; 3: 104; 4: 97

Entry CCOC(=O)C(CCc1ccccc1)NC(C)C(=O)N1Cc2ccccc2CC1C(=O)O (centres undefined) has what H1.0 immunofluorescence intensity?
101

###

Tested on: HCC1569
test_summary: H1.0 immunofluorescence intensity relative to DMSO (% of DMSO); higher = stronger H1.0 induction, active = 140 or more
test_parameters: concentration: 10 µM; 24 h
Mark TRUE for reported H1.0 immunofluorescence intensity of 100 or greater; mark FALSE for anything smaller.

Illustrative cases are given below, each with its answer.
COC(=O)C(N)Cc1ccc(Cl)cc1.Cl (racemic) [DL-p-Chlorophenylalanine methyl ester hydrochloride] ... TRUE
CNC(=O)c1cc(Oc2ccc(NC(=O)Nc3ccc(Cl)c(C(F)(F)F)c3)cc2)ccn1 ... FALSE
O=C(O)C=CC(=O)O.c1cnc(N2CCN(Cc3ccc4c(c3)OCO4)CC2)nc1 [Piribedil maleate] ... FALSE
Cc1nc(C)c(C)nc1C ... FALSE
O=C(NC1CCNCC1)c1[nH]ncc1NC(=O)c1c(Cl)cccc1Cl ... TRUE

Could you now look at the following compound, please?
Check this compound for H1.0 immunofluorescence intensity at or above 100: COC(=O)c1c(C)[nH]c(C)c1C(=O)c1ccccc1Cc1ccccc1
TRUE

###

Test system: HCC1569
test_summary: H1.0 immunofluorescence intensity relative to DMSO (% of DMSO); higher = stronger H1.0 induction, active = 140 or more
test_parameters: concentration: 10 µM; 24 h
Please state which outcome applies, choosing from TRUE = active, FALSE = inactive

Look over these answered cases.
O=C(CCCCCCC(=O)Nc1ccccc1)NO ... FALSE
NS(=O)(=O)Cc1noc2ccccc12 [Zonisamide] ... FALSE
COc1cc(Oc2ccnc3cc(OC)c(OC)cc23)ccc1NC(=O)NC(C)c1nccs1 (configuration not stated) ... FALSE
Cc1ccc(NC(=O)CCCCCC(=O)Nc2ccccc2N)cc1 [N~1~-(2-aminophenyl)-N~7~-(4-methylphenyl)heptanediamide] ... TRUE
CS(=O)(=O)O.O=C1Nc2ccc(-c3cccnc3)cc2C1=Cc1ccc[nH]1 [JAK3 Inhibitor VI] ... FALSE
COc1ccc(C(C)=O)c(O)c1 [Paeonol] ... FALSE

Would you kindly look at the next entry?
// outcome(item) with item = Cl.N=C(N)c1ccccc1 [Benzamidine hydrochloride]
FALSE

###

Tested on: TDF
test_summary: cell number relative to DMSO (% of DMSO); higher = more cells (less growth inhibition / toxicity)
test_parameters: concentration: 10 µM; 24 h
Assign cell number to each entry below.
Answers are plain numbers.

CCOC(=O)c1csc(Nc2ccc(Cl)cc2)n1 [ethyl 2-(4-chloroanilino)-1,3-thiazole-4-carboxylate] ... 99.4
CC(CCc1ccc(O)cc1)NCCc1ccc(O)c(O)c1.Cl (stereo not drawn) [Dobutamine hydrochloride] ... 95.7
COCCCCCCCCCCCC(=O)O ... 95.9
CC(=O)Nc1nnc(S(N)(=O)=O)s1 [Acetazolamide] ... 106
Nc1nccc(-c2c(-c3ccc(F)cc3)ncn2C2CCNCC2)n1 ... 89.4
CC(C)NCC(O)COc1cccc2ccccc12.Cl [(S)-Propranolol hydrochloride] ... 95.9
Cc1[nH]c(C=C2C(=O)Nc3ccc(S(=O)(=O)N(C)c4cccc(Cl)c4)cc32)c(C)c1C(=O)N1CCN(C)CC1 ... 59.6

Consider the record given below.
State the recorded cell number for this entry: CNCCC(Oc1ccc(C(F)(F)F)cc1)c1ccccc1 (stereo not drawn)
94.1

###

Tested on: TDF
test_summary: cell number relative to DMSO (% of DMSO); higher = more cells (less growth inhibition / toxicity)
test_parameters: concentration: 10 µM; 24 h
Label class 1 for high-side cell number (at or above 100) and class 0 for low-side cell number (below it).

As a guide, the following entries are already answered.
CC1CCC2C(C)C(OC(=O)CCC(=O)O)OC3OC4(C)CCC1C32OO4 (centres undefined) [Artesunate] ... class 0
Cc1c(CC(C)(C)C(=O)O)n(Cc2ccc(Cl)cc2)c2ccc(F)cc12 ... class 0

Given CS(=O)(=O)O.N=C(N)SCCc1ccc(OCc2ccc([N+](=O)[O-])cc2)cc1 , state whether its cell number is at least 100.
class 0

Okay, and COc1ccc2[nH]c(I)c(CCNC(C)=O)c2c1 ?
class 1

What do you have for CC(C)(C)c1ccc(S(=O)(=O)C=CC#N)cc1 ?
class 0

###

For each entry below, report its H1.0 immunofluorescence intensity value.
Test system: TDF
test_summary: H1.0 immunofluorescence intensity relative to DMSO (% of DMSO); higher = stronger H1.0 induction, active = 120 or more
test_parameters: concentration: 10 µM; 24 h
Numbers only.

CC(C)(C)NCC(O)COc1cccc2[nH]c(=O)[nH]c12.Cl (racemic) ... 93.5
O=c1cc(-c2cccc3c2Sc2ccccc2S3)oc(N2CCOCC2)c1 ... 94.5
CCOC(=O)[C@H](CCc1ccccc1)N[C@@H](C)C(=O)N1CCC[C@H]1C(=O)O.O=C(O)C=CC(=O)O ... 91

For every item below, please supply its H1.0 immunofluorescence intensity.
1. NCCC(O)(P(=O)([O-])O)P(=O)([O-])O.O.O.O.O.O.[Na+].[Na+] [Pamidronate.2Na.5H2O]
2. O=C(O)C=CC(=O)O.O=C(O)C=CC(=O)O.OCCOCCN1CCN(C2=Nc3ccccc3Sc3ccccc32)CC1 [Quetiapine Fumarate]
3. CCCCC(C)(C)C(O)C=CC1C(O)CC(=O)C1CC=CCCCC(=O)O (stereo not drawn) [16,16-Dimethyl-prostaglandin E2]

[95, 94.5, 94.7]

Each molecule below has a reported value. Please supply its H1.0 immunofluorescence intensity.
1. CC12CC3CC(C)(C1)CC(N)(C3)C2.Cl [Memantine.HCl]
2. O=C1CC(c2ccc(O)cc2)Oc2cc(O)cc(O)c21 (stereo not drawn)
3. Cl.NCCc1ccc(O)c(O)c1 [Dopamine hydrochloride]
4. CC(C=CC1(O)C(C)=CC(=O)CC1(C)C)=CC(=O)O (racemic)
5. COC1(C2=NCCN2)COc2ccccc2O1.Cl (stereo not drawn)

90.8
90.6
93.5
99.5
89.4

Take each entry in turn and give its H1.0 immunofluorescence intensity.
1. NC(=S)NCCCC(N)C(=O)O (stereo not drawn)
2. Cl.O=C(CNC(=O)c1cccc(C(F)(F)F)c1)N[C@@H]1CCN(Cc2ccc(Cl)cc2)C1
3. Cl.c1ccc2nc(C3=NCCN3)ccc2c1 [BU224 hydrochloride]
4. O=C(O)C1=CC(=NNc2ccc(S(=O)(=O)Nc3ccccn3)cc2)C=CC1=O

91.5
89.1
95
93

Your task in this section: give H1.0 immunofluorescence intensity for each listed record.
1. C[C@H]1CN(C[C@H](Cc2ccccc2)C(=O)NCC(=O)O)CC[C@@]1(C)c1cccc(O)c1
2. CC1CCc2c(N3CCC(O)CC3)c(F)cc3c(=O)c(C(=O)O)cn1c23 (stereo not drawn)
3. CN1C(C(=O)Nc2ccccn2)=C(O)c2ccccc2S1(=O)=O

88.5
98.7
96.9
